Quick reference: melting point of the listed items.

Recorded results for 3 compounds are shown here.
CS(=O)(=O)c1cccnc1Oc1cc(-n2c(=O)cc(C(F)(F)F)n(N)c2=O)c(F)cc1Cl    276 to 278 °C
N#Cc1c(F)cccc1Oc1cc(-n2c(=O)cc(C(F)(F)F)n(N)c2=O)c(F)cc1Cl    230 to 233 °C
CCS(=O)(=O)c1cccnc1Oc1cc(-n2c(=O)cc(C(F)(F)F)n(N)c2=O)c(F)cc1Cl    277 to 279 °C

*Q* Give its melting point value. Item: N#Cc1ccccc1Oc1cc(-n2c(=O)cc(C(F)(F)F)n(N)c2=O)c(F)cc1Cl
*A* 220 to 222 °C

====

Quick reference: CHEAL phytotoxicity rating (0-100) of the listed items.
tested on: lambsquarters (Chenopodium album, CHEAL); assay: Post-emerge greenhouse herbicide test, phytotoxicity rating; type: in vivo; details: 500 g al/ha, 14 days after application
// no unit string in output, number only

*Q* Give its CHEAL phytotoxicity rating (0-100) value. Item: Cn1c(C(F)(F)F)nc(-c2cc(Oc3ncccc3[N+](=O)[O-])c(Cl)cc2F)c1Cl
*A* 99

*Q* And the next one, O=c1n(CCCF)nnn1-c1cc(Oc2ncccn2)c(Cl)cc1Cl ?
*A* 95

*Q* And the next one, N#Cc1cccnc1Oc1cc(-n2nnn(CCCF)c2=O)c(F)cc1Cl ?
*A* 100

*Q* And the next one, Nc1ccc(Oc2cc(-n3c(=O)n4n(c3=S)CCCC4)c(F)cc2Cl)c(C(F)(F)F)c1 ?
*A* 90

====

tested on: sicklepod (Cassia obtusifolia, CASOB); test: Pre-emerge greenhouse herbicide test, phytotoxicity rating; format: in vivo; settings: Rate 125 g al/ha, 14 days after application, rating scale 0-100
reportedProperty: CASOB phytotoxicity rating
// no unit string in output, number only

Nn1c(C(F)(F)F)cc(=O)n(-c2cc(Oc3cccc(C(F)(F)F)c3)c(Cl)cc2F)c1=O [Compound 9-25]    30

*Q* Give its CASOB phytotoxicity rating value. Item: O=c1n(-c2cc(Oc3ncc([N+](=O)[O-])s3)c(Cl)cc2F)c(=S)n2n1CCCC2 [Compound 8-36]
*A* 90

*Q* And the next one, O=c1n(-c2cc(Oc3ncccc3[N+](=O)[O-])c(Cl)cc2F)c(=S)n2n1CCCC2 [Compound 8-19] ?
*A* 20

*Q* And the next one, Nc1cccnc1Oc1cc(-n2c(=O)n3n(c2=S)CCCC3)c(F)cc1Cl [Compound 8-42] ?
*A* 100

====

Quick reference: crop damage rating CORN of the listed items.
test system: field corn (Zea mays L., var. Dekalb 535, CORN); assay: Post-emerge greenhouse test, crop damage rating; format: in vivo; conditions: rate 63 g ai/ha, 14 days after application, scale 0-100
// no unit string in output, number only

Recorded results for 4 compounds are shown here.
Nc1cccnc1Oc1cc(-n2c(=O)n3n(c2=S)CCCC3)c(F)cc1Cl    0
CS(=O)(=O)c1cccnc1Oc1cc(-n2c(=O)n3n(c2=S)CCCC3)c(F)cc1Cl    10
CCOC(=O)C(C)Oc1ccc(Oc2cc(-n3c(=O)n4n(c3=S)CCCC4)c(F)cc2Cl)c(N)c1 (stereo not shown)    0
CC(C)S(=O)(=O)c1cccnc1Oc1cc(-n2c(=O)n3n(c2=S)CCCC3)c(F)cc1Cl    0

*Q* Give its crop damage rating CORN value. Item: CCOC(=O)C(C)Oc1ccc(Oc2cc(-n3c(=O)n4n(c3=O)CCCC4)c(F)cc2Cl)c([N+](=O)[O-])c1 (stereo not shown)
*A* 0

*Q* And the next one, O=c1n(-c2cc(Oc3nc(Cl)ccc3C(F)(F)F)c(Cl)cc2F)c(=S)n2n1CCCC2 ?
*A* 5

*Q* And the next one, O=c1n(-c2cc(Oc3nccc(C(F)(F)F)n3)c(Cl)cc2F)c(=S)n2n1CCCC2 ?
*A* 15
